Where do these numbers come from? They come from the Deep4Chem optical property database.

- assay.comment: photoluminescence quantum yield (fraction); solvent given as SMILES
- condition.summary: in Cc1ccccc1
measured.endpoint: photoluminescence quantum yield

[[record]]
compound = "CC(C)(C)c1ccc2c(c1)c1cc(C(C)(C)C)ccc1n2-c1cc(C(=O)c2ccncc2)cc(-n2c3ccc(C(C)(C)C)cc3c3cc(C(C)(C)C)ccc32)c1"
measured_endpoint = "photoluminescence quantum yield"
observed_result = 0.075

[[record]]
compound = "CCCCOC(=O)c1cc(Oc2ccc(C(C)(C)C)cc2)c2c3c(Cl)cc4c5c(cc(Cl)c(c6c(Oc7ccc(C(C)(C)C)cc7)cc(C(=O)OCCCC)c1c26)c53)C(=O)N(c1c(C(C)C)cccc1C(C)C)C4=O"
measured_endpoint = "photoluminescence quantum yield"
observed_result = 0.79

[[record]]
compound = "COc1ccc(N(c2ccc(OC)cc2)c2ccc(-c3ccc4c(c3)C(=O)c3ccccc3C4=O)cc2)cc1"
measured_endpoint = "photoluminescence quantum yield"
observed_result = 0.0045

[[record]]
compound = "COc1ccc(-c2cc3ccc4cc(-c5ccc(OC)cc5)cc5ccc(c2)c3c45)cc1"
measured_endpoint = "photoluminescence quantum yield"
observed_result = 0.09

[[record]]
compound = "Cc1ccc(N2C(c3ccccc3N(C)C)=NC(c3ccccc3)C2c2ccccc2)cc1 (stereo unspecified)"
measured_endpoint = "photoluminescence quantum yield"
observed_result = 0.275


Proceed to the following item.
Exercise: What photoluminescence quantum yield value was documented for this compound, CCCCN1C(=O)c2cc(Oc3ccc(C(C)(C)C)cc3)c3c4c(Oc5ccc(C(C)(C)C)cc5)cc5c6c(cc(Oc7ccc(C(C)(C)C)cc7)c(c7c(Oc8ccc(C(C)(C)C)cc8)cc(c2c37)C1=O)c64)C(=O)N(CCCC)C5=O ?
Key: 0.811

* * *

- assay.comment: photoluminescence quantum yield (fraction); solvent given as SMILES
- condition.summary: in C1CCCCC1
# photoluminescence quantum yield binned as lower range (below 0.04), middle range (0.04 to below 0.3), upper range (0.3 or more)

[[record]]
compound = "C/C(=C\\c1ccc(Cl)cc1)c1nc2ccccc2s1"
assigned_category = "lower range"


Exercise: Class for CCCCCCOc1ccc2oc3c(c2c1)=CC1=C(c2ccccc2C)c2cc4c5cc(OCCCCCC)ccc5oc4n2[B-](F)(F)[N+]=31 ?
Key: upper range

Exercise: Now the compound CC1(C)Cc2c(c3ccccc3c3nc4ccccc4nc23)O1
Key: middle range

* * *

- assay.comment: photoluminescence quantum yield (fraction); solvent given as SMILES
- condition.summary: in Cc1ccccc1
measured.endpoint: photoluminescence quantum yield

[[record]]
given_smiles = "CCN(CC)c1ccc2cc(/C=C/C(=C(C#N)C#N)c3ccc4c(c3)c3ccccc3n4CC)c(=O)oc2c1"
observed_result = 0.041


Exercise: Entry CCCCN(CCCC)c1ccc(/C=C/c2ccc3c(c2)CCc2cc(/C=C/c4ccc(N(CCCC)CCCC)cc4)ccc2-3)cc1 : reported photoluminescence quantum yield = ?
Key: 0.71

Exercise: Here is the next compound: CCN1c2ccc(/C=N/Nc3ccccn3)cc2Sc2cc(/C=N/Nc3ccccn3)ccc21
Key: 0.14

Exercise: Try this compound too: CCCCCCCCN(CCCCCCCC)c1ccc(/C=C/c2ccc(C#Cc3ccc(-c4ccc(C#Cc5ccc(/C=C/c6ccc(N(CCCCCCCC)CCCCCCCC)cc6)cc5)cc4)cc3)cc2)cc1
Key: 0.5

Exercise: Consider next the compound CN(C)c1ccc2nc(/C=C/c3cc4c5c(c3)CCCN5CCC4)c(=O)oc2c1 in the same way.
Key: 0.55

Exercise: Now the same for CCN(CC)c1ccc2cc(-c3cc(SC)c(C#N)c(=O)o3)c(=O)oc2c1
Key: 0.72

Exercise: Field entry: Cc1cc(C)c(B(c2ccc(-c3ccc4ccc5cccc6ccc3c4c56)cc2)c2c(C)cc(C)cc2C)c(C)c1
Key: 0.61

Exercise: Another compound: c1cc2c3c(c1)-c1cccc4cccc(c14)B3c1cccc3cccc-2c13
Key: 0.9

Exercise: Then C(=C\c1ccc(/C=C/c2ccc(N(c3ccccc3)c3ccccc3)cc2)c2nsnc12)/c1ccc(N(c2ccccc2)c2ccccc2)cc1 ?
Key: 0.345

Exercise: And the next one, COc1ccc(N(c2ccccc2)c2ccc(OC)cc2)cc1 ?
Key: 0.03

Exercise: And then Cc1cc(C)c(B(c2ccccc2-n2c3ccccc3c3ccccc32)c2c(C)cc(C)cc2C)c(C)c1 , what is it?
Key: 0.79

Exercise: Also, CC1=CC(C)=[N+]2C1=C(c1ccc(-c3ccc(OS(=O)(=O)c4ccc([N+](=O)[O-])cc4[N+](=O)[O-])cc3)s1)c1c(C)cc(C)n1[B-]2(F)F please.
Key: 0.066

Exercise: Request: Cc1cc(-c2nnc(-c3ccccc3)o2)ccc1-n1c2ccccc2c2ccccc21
Key: 0.56

Exercise: How about this compound: CCCCCCCCc1ccc(-c2ccc(/C=C(\C#N)c3ccc(-c4cccc5cccc(-c6ccc(/C(C#N)=C/c7ccc(-c8ccc(CCCCCCCC)cc8)cc7)cc6)c45)cc3)cc2)cc1
Key: 0.12

Exercise: Continue with CCC1(CC)c2cc(/C=C/c3ccc(/C=C/c4ccc5c(c4)C(CC)(CC)c4cc(N6c7ccccc7Sc7ccccc76)ccc4-5)cc3)ccc2-c2ccc(N3c4ccccc4Sc4ccccc43)cc21
Key: 0.58

Exercise: One more compound: COc1ccc2c(c1)[nH]c1c3[nH]c4cc(OC)ccc4c3c3nsnc3c21
Key: 0.5
